A collection of sequences and their measured binding signal
- study-system: GST-Rok (full length) (Bacillus subtilis subsp. subtilis str. …, UniProt O34857 1-191)
- Sequence: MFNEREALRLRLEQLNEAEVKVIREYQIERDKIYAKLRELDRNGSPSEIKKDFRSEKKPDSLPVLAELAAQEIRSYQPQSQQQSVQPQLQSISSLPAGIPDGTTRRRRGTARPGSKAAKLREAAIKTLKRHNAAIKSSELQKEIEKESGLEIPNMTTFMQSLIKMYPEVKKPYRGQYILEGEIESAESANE
- assay-protocol: protein binding microarray; high values mean tight binding
- condition-set: protein: recombinant; tags: GST (pTH5325, pDEST15-Magic modified); dsDNA, one strand shown
In all, about 33,000 sequences were measured (“e-score”: median about -0.037, highest 2% from about 0.34 on). The entries come from a sample that favours the highest values as a whole.
property: binding signal (E-score)

[[record]]
query_sequence = "AGTACTGC"
property = "binding signal"
reading = 0.114

[[record]]
query_sequence = "CCCGGCAC"
property = "binding signal"
reading = -0.109

[[record]]
query_sequence = "AGCAAACC"
property = "binding signal"
reading = 0.0585

[[record]]
query_sequence = "CCCGTTCA"
property = "binding signal"
reading = -0.154

[[record]]
query_sequence = "CGTACTGC"
property = "binding signal"
reading = 0.0418

[[record]]
query_sequence = "AGGCTGTA"
property = "binding signal"
reading = 0.00795

[[record]]
query_sequence = "ACGATTCA"
property = "binding signal"
reading = -0.00504

[[record]]
query_sequence = "CGTACTAA"
property = "binding signal"
reading = 0.217

[[record]]
query_sequence = "AGTACTAA"
property = "binding signal"
reading = 0.357

[[record]]
query_sequence = "AGTACGAT"
property = "binding signal"
reading = 0.134

[[record]]
query_sequence = "CCTCACCG"
property = "binding signal"
reading = -0.0671


====

- study-system: GST-Rok (full length) (Bacillus subtilis subsp. subtilis str. …, UniProt O34857 1-191)
- Sequence: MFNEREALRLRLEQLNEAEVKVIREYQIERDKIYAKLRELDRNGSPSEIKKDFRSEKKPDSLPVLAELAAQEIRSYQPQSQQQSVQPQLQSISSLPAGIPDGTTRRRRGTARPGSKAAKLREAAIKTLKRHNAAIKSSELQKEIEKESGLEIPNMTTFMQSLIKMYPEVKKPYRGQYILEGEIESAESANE
- assay-protocol: protein binding microarray; Rok is a gene silencer of Bacillus subtilis; high values mean tight binding
- condition-set: protein: recombinant; tags: GST (pTH5325, pDEST15-Magic modified); dsDNA, one strand shown
Whole data set: some 33,000 sequences, median “e-score” near -0.037, cut for the highest 2% near 0.34. Many of the other results were omitted from the sample, so the highest values are more common in it than they were.
A collection of sequences and their measured binding signal
property: binding signal (E-score)

[[record]]
query_sequence = "GAACTACA"
property = "binding signal"
reading = 0.222

[[record]]
query_sequence = "AATCTATA"
property = "binding signal"
reading = 0.384

[[record]]
query_sequence = "ATAACTAA"
property = "binding signal"
reading = 0.26

[[record]]
query_sequence = "CTAAATAA"
property = "binding signal"
reading = 0.251

[[record]]
query_sequence = "TGCCAGCA"
property = "binding signal"
reading = 0.156

[[record]]
query_sequence = "ACATATGT"
property = "binding signal"
reading = 0.401

[[record]]
query_sequence = "GCCCGTAA"
property = "binding signal"
reading = -0.148

[[record]]
query_sequence = "GCACTACC"
property = "binding signal"
reading = -0.000872

[[record]]
query_sequence = "ATGAAGTC"
property = "binding signal"
reading = -0.0225

[[record]]
query_sequence = "AGACTATC"
property = "binding signal"
reading = 0.0106

[[record]]
query_sequence = "AGATATAT"
property = "binding signal"
reading = 0.395

[[record]]
query_sequence = "ACATATGG"
property = "binding signal"
reading = 0.168

[[record]]
query_sequence = "CTAAATAG"
property = "binding signal"
reading = 0.172

[[record]]
query_sequence = "ACATATAC"
property = "binding signal"
reading = 0.289

[[record]]
query_sequence = "CATCTATC"
property = "binding signal"
reading = 0.289

[[record]]
query_sequence = "CGTTCCTC"
property = "binding signal"
reading = -0.0344

[[record]]
query_sequence = "GAACTACC"
property = "binding signal"
reading = 0.338

[[record]]
query_sequence = "AACGGCGC"
property = "binding signal"
reading = -0.0478

[[record]]
query_sequence = "AGATATAG"
property = "binding signal"
reading = 0.151

[[record]]
query_sequence = "GTAAATAC"
property = "binding signal"
reading = 0.352

[[record]]
query_sequence = "CGATACGA"
property = "binding signal"
reading = -0.0427

[[record]]
query_sequence = "AAAATAAT"
property = "binding signal"
reading = 0.246

[[record]]
query_sequence = "AGTGATTG"
property = "binding signal"
reading = -0.118

[[record]]
query_sequence = "ATATAAAG"
property = "binding signal"
reading = 0.17

[[record]]
query_sequence = "ATATAAAT"
property = "binding signal"
reading = 0.422

[[record]]
query_sequence = "AAAATACC"
property = "binding signal"
reading = 0.373

[[record]]
query_sequence = "CTGACCAC"
property = "binding signal"
reading = -0.141

[[record]]
query_sequence = "CATCTATA"
property = "binding signal"
reading = 0.199

[[record]]
query_sequence = "AGAACTAA"
property = "binding signal"
reading = 0.254

[[record]]
query_sequence = "TACATACA"
property = "binding signal"
reading = 0.341

[[record]]
query_sequence = "GATCAGAA"
property = "binding signal"
reading = 0.11

[[record]]
query_sequence = "CAGGGTTC"
property = "binding signal"
reading = -0.172

[[record]]
query_sequence = "AAAGAATA"
property = "binding signal"
reading = 0.138

[[record]]
query_sequence = "CAACTACA"
property = "binding signal"
reading = 0.18

[[record]]
query_sequence = "GTTACATA"
property = "binding signal"
reading = 0.212

[[record]]
query_sequence = "GACATACA"
property = "binding signal"
reading = 0.0575

[[record]]
query_sequence = "ATAACTAT"
property = "binding signal"
reading = 0.407

[[record]]
query_sequence = "CGCTTTTC"
property = "binding signal"
reading = 0.046

[[record]]
query_sequence = "TAAATACA"
property = "binding signal"
reading = 0.333

[[record]]
query_sequence = "CTAAATAC"
property = "binding signal"
reading = 0.351

[[record]]
query_sequence = "ACCTTGCG"
property = "binding signal"
reading = -0.00332

[[record]]
query_sequence = "AGAACTAG"
property = "binding signal"
reading = 0.298

[[record]]
query_sequence = "TACATATA"
property = "binding signal"
reading = 0.347

[[record]]
query_sequence = "ACCTAGAC"
property = "binding signal"
reading = 0.0548

[[record]]
query_sequence = "CGCCATTC"
property = "binding signal"
reading = -0.0796

[[record]]
query_sequence = "CAAATACC"
property = "binding signal"
reading = 0.126

